Reference source: paper PMC3511469

system: V. vulnificus 204; format: cell-based, Vibrio vulnificus; details: 204, pH 7.4
Where no end group is shown, it is not given here.
reportedProperty: MIC (µg/mL)
Give bare numbers, in µg/mL.

Look at this substance and give its reported MIC. GFIFHIIKGLFHAGKMIHGLV-NH2 [Epi-1, epinecidin-1, reference compound]
0.67

What measured MIC goes with FIHHIIGWISHGVRAIHRAIHG-NH2 [cod Pis 1, reference compound] ?
0.62

# input substance: FIHHIIGGLFSAGKAIHRLIRRRRR-NH2 [TP4] ; wanted: its MIC
0.03

# input for lookup
# query: MIC of entry FIHHIIGGLFSVGKHIHSLIHGH-NH2 [TP3]
2.44

---

tested on: V. vulnificus 204; format: cell-based, Vibrio vulnificus; conditions: 204, pH 7.4
Where no end group is shown, it is not given here.
reportedProperty: MIC

The following substances have reported results that may help.
What value of MIC on V. vulnificus 204 does FDWDSVLKGVEGFVRGYF-NH2 [TP1] have?
>23.57 µg/mL

Param readout = MIC; param system = V. vulnificus 204; param query = GECIWDAIFHGAKHFLHRLVNP-NH2 [TP2] ; response: value
>19.52 µg/mL

# context switch: different substance, same MIC
Give V. vulnificus 204 MIC for QLQGKQVSGEVVQKVLQELIQSVAKP-NH2 [TP5]
>17.64 µg/mL
